// data source = ChEMBL document CHEMBL5537159

- experimentNotes: Tmax in human at 600 […], po administered as single dose and measured upto 144 hrs
- Assay type: ADME, organism-based
- conditionNotes: in vivo
readoutName: Tmax (h)
Answers are plain numbers, in h.

Quick check: Tmax of Cc1ccc(NC(=O)C[C@H](CCC(=O)O)c2noc([C@H]3C[C@@H](CC(C)(C)C)C3)c2C2CC2)c(Cl)c1 ? 3

---

- experimentNotes: Apparent permeability in human Caco-2 cells at 25 umol/L incubated for 2 hrs by LC/MS/MS analysis
- Format: ADME, cell-based
- conditionNotes: dose 25 µmol/L
Please respond with reported Papp at 2 h, 25 µM for every item in the list.
Give bare numbers, in ×10⁻⁶ cm/s.

Solved cases below.
{"smilesStr": "Cc1ccc(NC(=O)C[C@H](OCC(=O)O)c2noc([C@H]3C[C@@H](CC(C)C)C3)c2C2CC2)c(C)c1", "Papp at 2 h, 25 µM (×10⁻⁶ cm/s)": 24.9}
{"smilesStr": "Cc1ccc(NC(=O)C[C@H](CCC(=O)O)c2nnn([C@H]3C[C@@H](CC(C)(C)C)C3)c2C2CC2)c(Cl)c1", "Papp at 2 h, 25 µM (×10⁻⁶ cm/s)": 30.9}
{"smilesStr": "Cc1cc(C)c(C)c(NC(=O)C[C@H](CC(=O)O)c2noc([C@H]3C[C@@H](CC(C)C)C3)c2C2CC2)c1", "Papp at 2 h, 25 µM (×10⁻⁶ cm/s)": 17}
{"smilesStr": "Cc1ccc(NC(=O)C[C@H](c2nnc([C@H]3C[C@@H](CC(C)C)C3)n2C2CC2)[C@H]2C[C@@H](O)C2)c(C)c1", "Papp at 2 h, 25 µM (×10⁻⁶ cm/s)": 15.2}

For each entry beneath this line, provide reported Papp at 2 h, 25 µM.
1. CC(C)C[C@H]1C[C@@H](c2onc([C@@H](CC(=O)O)CC(=O)Nc3ccc(Cl)cc3F)c2C2CC2)C1
2. Cc1ccc(NC(=O)C[C@H](CCC(=O)O)c2noc([C@H]3C[C@@H](CC(C)(C)C)C3)c2C2CC2)c(Cl)c1
3. CC(=O)N1C[C@H](C(=O)Nc2ccc(C)cc2C)[C@@H](c2nnc([C@H]3C[C@@H](CC(C)C)C3)n2C2CC2)C1

29.9
22.3
19.8

---

Please respond with reported log10 of EC50 for every item in the list.
- testSystem: Nuclear receptor ROR-gamma (Homo sapiens)
- Sequence (P51449 whole entry, the tested form may be a part): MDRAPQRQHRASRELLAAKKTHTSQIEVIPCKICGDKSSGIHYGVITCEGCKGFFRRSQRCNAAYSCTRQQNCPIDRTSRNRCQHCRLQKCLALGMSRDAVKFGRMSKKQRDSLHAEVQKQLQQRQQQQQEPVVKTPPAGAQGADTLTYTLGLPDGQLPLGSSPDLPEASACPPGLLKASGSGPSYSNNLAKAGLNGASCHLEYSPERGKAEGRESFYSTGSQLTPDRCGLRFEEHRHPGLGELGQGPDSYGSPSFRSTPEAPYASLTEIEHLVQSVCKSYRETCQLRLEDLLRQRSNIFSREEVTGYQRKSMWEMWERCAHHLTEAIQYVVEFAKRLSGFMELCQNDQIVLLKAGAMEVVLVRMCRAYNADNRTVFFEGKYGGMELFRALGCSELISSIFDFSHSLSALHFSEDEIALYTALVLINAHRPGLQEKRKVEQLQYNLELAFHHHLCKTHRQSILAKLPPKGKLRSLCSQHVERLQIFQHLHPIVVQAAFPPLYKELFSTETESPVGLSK
- experimentNotes: Inhibition of GAL4 DNA-binding domain fused RORgamma (unknown origin) transfected in CHO-K1 cells incubated for 2 days by luciferase assay
Give log10 of EC50, with EC50 taken in nM.

Solved cases below.
{"molecule": "Cc1ccc(NC(=O)CC(Cc2nnn[nH]2)c2nnc([C@H]3C[C@@H](CC(C)C)C3)n2C2CC2)c(C)c1 (mixture of isomers)", "log10 of EC50": 3.78}
{"molecule": "Cc1ccc(NC(=O)C[C@H](CC(=O)O)c2noc([C@H]3C[C@@H](CC(C)C)C3)c2C2CC2)c(Cl)c1", "log10 of EC50": 1.63}
{"molecule": "Cc1ccc(NC(=O)CC(CC(=O)O)c2nnc([C@H]3C[C@@H](CC(C)C)C3)n2C2CC2)c(C)c1 (mixture of isomers)", "log10 of EC50": 3.48}
{"molecule": "Cc1ccc(NC(=O)C[C@H](Cc2nc(C(=O)O)cs2)c2noc([C@H]3C[C@@H](CC(C)C)C3)c2C2CC2)c(C)c1", "log10 of EC50": 2.04}
{"molecule": "Cc1ccc(C)c(NC(=O)C[C@H](CC(=O)O)c2noc([C@H]3C[C@@H](CC(C)C)C3)c2C2CC2)c1", "log10 of EC50": 1.81}

For each entry beneath this line, provide reported log10 of EC50.
1. C=C(C)c1c([C@@H](CC(=O)O)CC(=O)Nc2ccc(C)cc2C)noc1[C@H]1C[C@@H](CC(C)C)C1
2. Cc1ccc(NC(=O)C[C@H](CCC(=O)O)n2nnc([C@H]3C[C@@H](CC(C)(C)C)C3)c2C2CC2)c(Cl)c1
3. Cc1ccc(NC(=O)C[C@H](CC(C)(C)O)c2nnc([C@H]3C[C@@H](CC(C)C)C3)n2C2CC2)c(C)c1.Cl
4. Cc1cc(C)c(C)c(NC(=O)C[C@H](CC(=O)O)c2noc([C@H]3C[C@@H](CC(C)C)C3)c2C2CC2)c1
5. Cc1ccc(NC(=O)C[C@H](CC(=O)O)c2noc([C@H]3C[C@@H](CC(C)C)C3)c2C(C)C)c(C)c1
6. Cc1ccc(NC(=O)CC(c2nnc([C@H]3C[C@@H](CC(C)C)C3)n2C2CC2)C2CN(C)C2)c(C)c1 (mixture of isomers)

1. 3.08
2. 1.34
3. 1.48
4. 1.80
5. 2.82
6. 3.84

For each entry beneath this line, provide reported log10 of EC50.
1. Cc1ccc(NC(=O)C[C@H](Cc2nnn[nH]2)c2noc([C@H]3C[C@@H](CC(C)C)C3)c2C2CC2)c(C)c1
2. Cc1ccc(NC(=O)C[C@H](CCC(=O)O)c2noc([C@H]3C[C@@H](CC(C)(C)C)C3)c2C2CC2)c(Cl)c1

1. 1.80
2. 1.11
